Data origin: paper PMC4393105

# test system: E. coli GluRS + S. cerevisiae tRNA^Phe (Escherichia coli)
# Construct: His tag (histidine tag) (C); made in house
# assay procedure: Isothermal titration microcalorimetry of Glu-AMS binding to GluRS in the presence of non-cognate tRNA^Phe
# applied conditions: Kd (dissociation constant), single ITC run; tRNA^Phe 11.23 µM; 303 K; [ligand] 90 µM; [GluRS] 2.434 µM; Kd = 1/Kb
readout type: Kd (nM)
# number only, unit nM dropped from output

In: Given Nc1ncnc2c1ncn2[C@@H]1O[C@H](COS(=O)(=O)NC(=O)[C@@H](N)CCC(=O)O)[C@@H](O)[C@H]1O [Glu-AMS, 5’-O-[N-(L-glutamyl)sulfamoyl]adenosine] , report its Kd on E. coli GluRS + S. cerevisiae tRNA^Phe (Escherichia coli).
Out: 987

---

# test system: E. coli GluRS (Escherichia coli, UniProt P04805)
# Construct: His tag (histidine tag) (C); made in house
# assay procedure: Isothermal titration microcalorimetry of Glu-AMS binding to GluRS in the absence of tRNA
# applied conditions: Kd (dissociation constant), single ITC run; no tRNA; 303 K; [ligand] 90 µM; [GluRS] 5.355 µM; Kd = 1/Kb
readout type: Kd (nM)
# number only, unit nM dropped from output

In: Assign Kd to the following record: Nc1ncnc2c1ncn2[C@@H]1O[C@H](COS(=O)(=O)NC(=O)[C@@H](N)CCC(=O)O)[C@@H](O)[C@H]1O [Glu-AMS, 5’-O-[N-(L-glutamyl)sulfamoyl]adenosine]
Out: 307

---

# test system: E. coli GluRS + E. coli tRNA^Glu (Escherichia coli, UniProt P04805)
# Construct: His tag (histidine tag) (C); made in house
# Sequence (P04805 whole entry): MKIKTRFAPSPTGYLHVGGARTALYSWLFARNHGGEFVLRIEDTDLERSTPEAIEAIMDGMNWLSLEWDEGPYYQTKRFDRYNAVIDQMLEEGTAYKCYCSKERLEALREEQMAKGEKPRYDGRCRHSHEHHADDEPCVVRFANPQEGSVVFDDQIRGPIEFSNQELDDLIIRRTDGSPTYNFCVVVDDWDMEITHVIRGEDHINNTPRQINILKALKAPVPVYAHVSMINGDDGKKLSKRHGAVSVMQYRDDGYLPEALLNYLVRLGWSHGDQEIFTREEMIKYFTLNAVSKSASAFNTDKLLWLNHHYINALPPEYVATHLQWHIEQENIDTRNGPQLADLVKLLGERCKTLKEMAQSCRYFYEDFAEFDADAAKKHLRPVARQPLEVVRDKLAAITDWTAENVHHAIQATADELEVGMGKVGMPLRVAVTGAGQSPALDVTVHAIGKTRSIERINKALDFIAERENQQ
# assay procedure: Isothermal titration microcalorimetry of Glu-AMS binding to GluRS in the presence of tRNA^Glu
# applied conditions: Kd (dissociation constant), single ITC run; tRNA^Glu 5.3 µM; 303 K; [ligand] 45 µM; [GluRS] 2.636 µM; Kd = 1/Kb
readout type: pKd
On this scale, pKd is minus log10 of a concentration expressed in M (mol/L).

In: Assign pKd to the following record: Nc1ncnc2c1ncn2[C@@H]1O[C@H](COS(=O)(=O)NC(=O)[C@@H](N)CCC(=O)O)[C@@H](O)[C@H]1O [Glu-AMS, 5’-O-[N-(L-glutamyl)sulfamoyl]adenosine]
Out: 8.26

---

# test system: E. coli GluRS + E. coli tRNA^Glu (Escherichia coli)
# Construct: His tag (histidine tag) (C); made in house
# assay procedure: Isothermal titration microcalorimetry of Glu-AMS binding to GluRS in the presence of tRNA^Glu
# applied conditions: K d aa-AMP aaRS, in the presence of tRNA^Glu; Kd = 1/Kb
readout type: pKd
On this scale, pKd is minus log10 of a concentration expressed in M (mol/L).

In: Given Nc1ncnc2c1ncn2[C@@H]1O[C@H](COS(=O)(=O)NC(=O)[C@@H](N)CCC(=O)O)[C@@H](O)[C@H]1O [Glu-AMS, 5’-O-[N-(L-glutamyl)sulfamoyl]adenosine] , report its pKd on E. coli GluRS + E. coli tRNA^Glu (Escherichia coli).
Out: 8.15

---

# test system: E. coli GluRS (Escherichia coli, UniProt P04805)
# Construct: His tag (histidine tag) (C); made in house
# assay procedure: Isothermal titration microcalorimetry of Glu-AMS binding to GluRS in the absence of tRNA
# applied conditions: Kd (dissociation constant), single ITC run; no tRNA; 310 K; [ligand] 90 µM; [GluRS] 3.169 µM; Kd = 1/Kb
readout type: Kd (nM)
# number only, unit nM dropped from output

In: Assign Kd to the following record: Nc1ncnc2c1ncn2[C@@H]1O[C@H](COS(=O)(=O)NC(=O)[C@@H](N)CCC(=O)O)[C@@H](O)[C@H]1O [Glu-AMS, 5’-O-[N-(L-glutamyl)sulfamoyl]adenosine]
Out: 256

---

# test system: E. coli GluRS (Escherichia coli)
# Construct: His tag (histidine tag) (C); made in house
# assay procedure: Isothermal titration microcalorimetry of Glu-AMS binding to GluRS in the absence of tRNA
# applied conditions: Kd (dissociation constant), single ITC run; no tRNA; 293 K; [ligand] 90 µM; [GluRS] 4.35 µM; Kd = 1/Kb
readout type: Kd (nM)
# number only, unit nM dropped from output

In: Assign Kd to the following record: Nc1ncnc2c1ncn2[C@@H]1O[C@H](COS(=O)(=O)NC(=O)[C@@H](N)CCC(=O)O)[C@@H](O)[C@H]1O [Glu-AMS, 5’-O-[N-(L-glutamyl)sulfamoyl]adenosine]
Out: 547
